- SYSTEM: Human SARS-CoV-2_Wuhan S (SmT1) (SARS-CoV-2 (Wuhan), UniProt P0DTC2 14-1208)
- TEST PROTOCOL: SPR, VHH over immobilised S
pKd: −log10 of the molar value.
Here the recorded pKd is given for each entry.

BINDER: NRCoV2-SR16 VHH (VHH) VHH: QVQLVQSAGGLVQAGGSLRLSCVVSGTTFSRYHMGWHRQAPGKQRDFVAGISTSGAVTYADSAKGRFTISRDNAKNTVYLEMNSLKLEDTALYYCNTGGWDYRSSTFIMGLNWGQGTQVTVSS
pKd: 8.70

BINDER: NRCoV2-14 VHH (VHH) VHH: EVQLVSSGGGLVQAGGSLRLSCEASGTTFSHYAVGWYRQAPGKQREWVASISVFGSTTYGGSVAGRFTISRDNDKNTVDLQMNSLKPEDTAVYYCHAVNADIGGDYWGQGTQVTVSS
pKd: 8.59

BINDER: NRCoV2-10 VHH (VHH) VHH: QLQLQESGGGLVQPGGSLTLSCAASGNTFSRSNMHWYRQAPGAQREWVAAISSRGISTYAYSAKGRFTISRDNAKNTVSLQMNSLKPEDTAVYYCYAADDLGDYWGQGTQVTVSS
pKd: 9.70

BINDER: NRCoV2-MRed03 VHH (VHH) VHH: EVQLVESGGGLVQPGGSLRLSCAAIGFTLDYYAIGWFRQAPGKEREGVSCISSSDGSTYYADSVKGRFTISRDNAKNTVYLQMNSLKPEDTAVYYCATDAFATCDSWYAQIAQYDFRGQGTQVTVSS
pKd: 9.29
